molecules and their reported log10 of LC50
- System: Bemisia tabaci
- assay-protocol: Insecticidal activity against Bemisia tabaci (sweet potato whitefly) infested poinsettia leaves assessed as mortality after 48 hr by leaf dip method
- Type: functional
- setup-conditions: foliar
measure: log10 of LC50 (log10 of the value in µg/mL)

molecule: N#Cc1nn(-c2c(Cl)cc(C(F)(F)F)cc2Cl)c(N)c1[S+]([O-])C(F)(F)F (stereo not given)
study-system: Bemisia tabaci
log10 of LC50: 0.96
//
molecule: Cc1c(COC(=O)[C@@H]2[C@H](/C=C(\Cl)C(F)(F)F)C2(C)C)cccc1-c1ccccc1
study-system: Bemisia tabaci
log10 of LC50: 2.44
//
molecule: CCOP(=S)(OCC)Oc1nc(Cl)c(Cl)cc1Cl
study-system: Bemisia tabaci
log10 of LC50: 3.33
//
molecule: C/C(=N\C#N)N(C)Cc1ccc(Cl)nc1
study-system: Bemisia tabaci
log10 of LC50: 2.11
//
molecule: CCCCN(CCCC)SN(C)C(=O)Oc1cccc2c1OC(C)(C)C2
study-system: Bemisia tabaci
log10 of LC50: 3.57

====

- Tested on: Bemisia tabaci
- assay-protocol: Insecticidal activity against Bemisia tabaci (sweet potato whitefly) infested cucumber leaves assessed as mortality after 48 hr by leaf dip method
- Type: functional
- setup-conditions: foliar
measure: log10(LC50) (log10 of the value in µg/mL)

molecule: CCOP(=S)(OCC)Oc1nc(Cl)c(Cl)cc1Cl [CHLORPYRIFOS]
result: 2.97

molecule: C/C(=N\C#N)N(C)Cc1ccc(Cl)nc1 [ACETAMIPRID]
result: 1.09

molecule: Cc1c(COC(=O)[C@@H]2[C@H](/C=C(\Cl)C(F)(F)F)C2(C)C)cccc1-c1ccccc1 [BIFENTHRIN]
result: 2.66

molecule: CCCCN(CCCC)SN(C)C(=O)Oc1cccc2c1OC(C)(C)C2 [CARBOSULFAN]
result: 3.49

molecule: N#Cc1nn(-c2c(Cl)cc(C(F)(F)F)cc2Cl)c(N)c1[S+]([O-])C(F)(F)F (stereo not given) [FIPRONIL]
result: 0.94
